Ref: patent US20260295053A1

- system.tested: KRAS (G12D) (Homo sapiens, UniProt P01116, G12D)
- Construct: in-cell western with KRAS G12D antibody after 24 h
- Sequence (P01116 1-188 isoform P01116-2 G12D): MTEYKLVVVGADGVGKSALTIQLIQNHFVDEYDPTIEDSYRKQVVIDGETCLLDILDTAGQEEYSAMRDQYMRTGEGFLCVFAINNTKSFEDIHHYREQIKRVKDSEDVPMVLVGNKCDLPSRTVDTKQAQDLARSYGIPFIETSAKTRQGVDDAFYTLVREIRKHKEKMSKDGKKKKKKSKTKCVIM
- procedure.summary: KRAS (G12D) cellular degradation assay in AsPC-1 cells
- Format: cell-based
- reported.conditions: 24 hours, antibody fluorescence (Odyssey CLX), DC50 half-maximal degradation concentration
Measured DC50, listed per entry.
endpoint.name: DC50

1. CO[C@@H](C)COc1nc(N2C[C@@H]3C[C@H]2CN3)c2cc(C3CC3)c(-c3c(C)c(F)cc4[nH]ncc34)c(OCc3ccc(-c4cn([C@H](C(=O)N5C[C@H](O)C[C@H]5C(=O)N[C@H](C#Cc5ccc(F)cc5F)CO)C(C)C)nn4)cc3)c2n1; 10 to 100 nM
2. CO[C@@H](C)COc1nc(N2C[C@@H]3C[C@H]2CN3)c2cc(C3CC3)c(-c3c(C)c(F)cc4[nH]ncc34)c(OCc3ccc(-c4cn([C@H](C(=O)N5C[C@H](O)C[C@H]5C(=O)N[C@H](C#Cc5cccc(Cl)c5F)CO)C(C)C)nn4)cc3)c2n1; 10 to 100 nM
3. CCn1nccc1-c1ccc([C@H](CO)NC(=O)[C@@H]2C[C@@H](O)CN2C(=O)[C@H](C(C)C)n2cc(-c3ccc(COc4c(-c5c(C)c(F)cc6[nH]ncc56)c(C5CC5)cc5c(N6C7CNCC6COC7)nc(OC[C@H](C)OC)nc45)cc3)nn2)cc1; 10 to 100 nM
4. CCn1nccc1-c1ccc([C@@H](NC(=O)[C@@H]2C[C@@H](O)CN2C(=O)[C@H](C(C)C)n2cc(-c3ccc(COc4c(-c5c(C)c(F)cc6[nH]ncc56)c(C5CC5)cc5c(N6C[C@@H]7C[C@H]6CN7)nc(OC6CC7(CCOC7)C6)nc45)cc3)nn2)[C@H](C)O)cc1 (some centres unmarked); < 10 nM
5. CO[C@@H](C)COc1nc(N(C)[C@H]2CCNC2)c2cc(C3CC3)c(-c3c(C)c(F)cc4[nH]ncc34)c(OCc3ccc(-c4cn([C@H](C(=O)N5C[C@H](O)C[C@H]5C(=O)N[C@H](c5ccc(-c6scnc6C)cc5)[C@H](C)O)C(C)C)nn4)cc3)c2n1 [Example 143]; < 10 nM
6. Cc1ncsc1-c1ccc([C@H](CO)NC(=O)[C@@H]2C[C@@H](O)CN2C(=O)[C@H](C(C)C)n2cc(-c3ccc(COc4c(-c5c(C)c(F)cc6[nH]ncc56)c(C5CC5)cc5c(N6C[C@@H]7C[C@H]6CN7)nc(OC6CC7(COC7)C6)nc45)cc3)nn2)cc1; < 10 nM
7. CCn1nccc1-c1ccc([C@H](CO)NC(=O)[C@@H]2C[C@@H](O)CN2C(=O)[C@H](C(C)C)n2cc(-c3ccc(COc4c(-c5c(C)c(F)cc6[nH]ncc56)c(C5CC5)cc5c(N6CCC(N)CC6)nc(OC[C@H](C)OC)nc45)cc3)nn2)cc1; < 10 nM
8. CCn1nccc1-c1ccc([C@H](CO)NC(=O)[C@@H]2C[C@@H](O)CN2C(=O)[C@H](C(C)C)n2cc(-c3ccc(COc4c(-c5c(C)c(F)cc6[nH]ncc56)c(C5CC5)cc5c(N(C)[C@@H]6CCNC6)nc(O[C@H]6C[C@H](OC)C6)nc45)cc3)nn2)cc1; < 10 nM
